# target.of.assay: cMet (Homo sapiens, UniProt P08581)
# Sequence (P08581 25-1390): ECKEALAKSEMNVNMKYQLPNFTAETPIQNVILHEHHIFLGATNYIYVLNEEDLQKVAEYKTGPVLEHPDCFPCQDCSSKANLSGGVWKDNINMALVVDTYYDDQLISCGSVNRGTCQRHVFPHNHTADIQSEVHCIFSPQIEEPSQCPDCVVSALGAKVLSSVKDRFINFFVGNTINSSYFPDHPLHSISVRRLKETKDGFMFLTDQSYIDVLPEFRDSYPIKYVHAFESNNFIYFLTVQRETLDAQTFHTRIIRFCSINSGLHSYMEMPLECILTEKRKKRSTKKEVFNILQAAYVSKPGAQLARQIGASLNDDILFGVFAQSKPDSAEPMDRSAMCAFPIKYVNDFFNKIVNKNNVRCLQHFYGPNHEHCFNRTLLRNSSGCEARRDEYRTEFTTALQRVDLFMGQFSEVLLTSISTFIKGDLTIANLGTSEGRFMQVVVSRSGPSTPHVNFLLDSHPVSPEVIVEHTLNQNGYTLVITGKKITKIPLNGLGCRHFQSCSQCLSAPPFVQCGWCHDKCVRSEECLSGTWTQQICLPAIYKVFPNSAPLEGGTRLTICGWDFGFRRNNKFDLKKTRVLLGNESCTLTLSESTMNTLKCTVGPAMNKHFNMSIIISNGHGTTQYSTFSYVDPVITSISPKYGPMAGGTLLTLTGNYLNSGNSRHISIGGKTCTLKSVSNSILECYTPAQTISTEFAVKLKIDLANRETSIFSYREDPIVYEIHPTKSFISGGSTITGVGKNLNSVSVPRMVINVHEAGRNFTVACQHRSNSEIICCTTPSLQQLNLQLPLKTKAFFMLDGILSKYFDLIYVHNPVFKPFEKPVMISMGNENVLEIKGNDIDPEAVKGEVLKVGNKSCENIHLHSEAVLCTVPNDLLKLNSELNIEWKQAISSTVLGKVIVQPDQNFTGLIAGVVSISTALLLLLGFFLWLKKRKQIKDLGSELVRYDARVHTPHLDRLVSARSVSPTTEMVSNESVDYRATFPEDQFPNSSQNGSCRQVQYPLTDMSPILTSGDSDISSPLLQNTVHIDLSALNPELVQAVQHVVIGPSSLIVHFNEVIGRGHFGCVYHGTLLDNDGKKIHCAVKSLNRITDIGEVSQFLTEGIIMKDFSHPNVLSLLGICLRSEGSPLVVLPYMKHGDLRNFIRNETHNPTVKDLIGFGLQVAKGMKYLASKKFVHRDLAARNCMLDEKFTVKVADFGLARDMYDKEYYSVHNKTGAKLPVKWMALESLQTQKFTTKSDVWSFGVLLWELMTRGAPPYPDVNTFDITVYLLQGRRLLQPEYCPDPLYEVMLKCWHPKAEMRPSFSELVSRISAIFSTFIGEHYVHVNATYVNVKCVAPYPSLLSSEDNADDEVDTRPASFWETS
# assay.text: cMet kinase assay
# Type: biochemical
# condition.set: 10 μM compound; read-out: cMet percent of inhibition
# Experimental: General description of the kinase assays: the kinase activity was assayed in 96-well microtiter plates at a final compound concentration of 10 μM in a total volume of 50 μl. Compounds were dissolved in 100% DMSO to prepare a 10 mM stock solution and than diluted with buffer to reach a 10 μM (or the required) final concentration. The kinase concentration was used to yield 10% ATP turn over. […] The radioactivity was counted on a Microbeta microplate counter.
measured.property: inhibition at 10 µM (%)

Below, each entry is followed by its recorded inhibition at 10 µM result.
> print(dat)
                                   molecule  meas.value
1  Clc1cccc(Nc2nc(C3CC3)nc3sc4ccccc4c23)c1 [Compound 17]          -5
2  N#Cc1cccc(Nc2ncnc3sc4c(c23)CCCC4)c1 [Compound 5]          -4

(1) Brc1cccc(Nc2ncnc3sc4c(c23)CCCC4)c1 [Compound 3]
(2) Fc1cccc(Nc2ncnc3sc4ccccc4c23)c1 [Compound 21]
Which entry has a larger number for inhibition at 10 µM, 1 or 2 ? Answer = label.
2

====

# target.of.assay: UniProtKB P49841
# Sequence (P49841 whole entry, species assumed): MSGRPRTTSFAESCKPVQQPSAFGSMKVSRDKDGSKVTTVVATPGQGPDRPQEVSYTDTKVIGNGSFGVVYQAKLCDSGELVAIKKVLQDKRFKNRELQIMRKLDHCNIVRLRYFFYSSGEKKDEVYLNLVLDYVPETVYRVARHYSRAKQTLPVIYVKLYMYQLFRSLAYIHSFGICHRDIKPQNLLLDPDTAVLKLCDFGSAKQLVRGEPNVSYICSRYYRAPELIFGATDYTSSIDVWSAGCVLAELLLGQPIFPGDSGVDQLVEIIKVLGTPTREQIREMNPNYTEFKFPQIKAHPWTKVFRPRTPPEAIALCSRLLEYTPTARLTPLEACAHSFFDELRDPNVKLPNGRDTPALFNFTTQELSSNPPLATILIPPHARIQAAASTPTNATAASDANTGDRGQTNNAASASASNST
# assay.text: GSK-3beta kinase assay
# Format: biochemical
# condition.set: 10 μM compound; read-out: GSK-3beta percent of inhibition
measured.property: inhibition at 10 µM (%)

> print(dat)
                                   molecule  endpoint.unit  meas.value
1  Oc1cccc(Nc2nc(C3CC3)nc3sc4c(c23)CCCC4)c1 [Compound 10]              %          -8

(P) O=[N+]([O-])c1cccc(Nc2nc(C3CC3)nc3sc4c(c23)CCCC4)c1 [Compound 13]
(Q) Clc1cccc(Nc2ncnc3sc4ccccc4c23)c1 [Compound 22]
Identify the item whose inhibition at 10 µM is the smaller number: P or Q Answer = label.
P
(P: -6%, Q: 5%)

====

# target.of.assay: CDK2/CycA (Homo sapiens)
# assay.text: CDK2/CycA kinase assay
# Format: biochemical
# condition.set: 10 μM compound; read-out: CDK2/CycA percent of inhibition
measured.property: inhibition at 10 µM (%)

Below, each entry is followed by its recorded inhibition at 10 µM result.
> print(dat)
                                   compound           target.of.assay  meas.value
1  COc1cccc(Nc2nc(C3CC3)nc3sc4c(c23)CCCC4)c1 [Compound 15]  CDK2/CycA (Homo sapiens)         -14
2  Nc1cccc(Nc2nc(C3CC3)nc3sc4c(c23)CCCC4)c1 [Compound 12]  CDK2/CycA (Homo sapiens)          -8
3  Fc1ccccc1Nc1ncnc2sc3c(c12)CCCC3 [Compound 1]  CDK2/CycA (Homo sapiens)           3
4  Clc1cccc(Nc2nc(C3CC3)nc3sc4ccccc4c23)c1 [Compound 17]  CDK2/CycA (Homo sapiens)          -2
5  Fc1cccc(Nc2nc(C3CC3)nc3sc4ccccc4c23)c1 [Compound 16]  CDK2/CycA (Homo sapiens)          -2
6  Brc1cccc(Nc2ncnc3sc4c(c23)CCCC4)c1 [Compound 3]  CDK2/CycA (Homo sapiens)           4

(a) COc1cccc(Nc2nc(C3CC3)nc3sc4ccccc4c23)c1 [Compound 20]
(b) Brc1cccc(Nc2nc(C3CC3)nc3sc4ccccc4c23)c1 [Compound 18]
(c) Fc1ccc(Nc2ncnc3sc4c(c23)CCCC4)cc1 [Compound 6]
(d) Clc1ccc(Nc2ncnc3sc4c(c23)CCCC4)cc1 [Compound 7]
Put the items in sequence by inhibition at 10 µM, from largest down. // list labels; follow requested order
c, a, d, b

====

# target.of.assay: InsR (Homo sapiens, UniProt P06213)
# Sequence (P06213 28-1382, species assumed): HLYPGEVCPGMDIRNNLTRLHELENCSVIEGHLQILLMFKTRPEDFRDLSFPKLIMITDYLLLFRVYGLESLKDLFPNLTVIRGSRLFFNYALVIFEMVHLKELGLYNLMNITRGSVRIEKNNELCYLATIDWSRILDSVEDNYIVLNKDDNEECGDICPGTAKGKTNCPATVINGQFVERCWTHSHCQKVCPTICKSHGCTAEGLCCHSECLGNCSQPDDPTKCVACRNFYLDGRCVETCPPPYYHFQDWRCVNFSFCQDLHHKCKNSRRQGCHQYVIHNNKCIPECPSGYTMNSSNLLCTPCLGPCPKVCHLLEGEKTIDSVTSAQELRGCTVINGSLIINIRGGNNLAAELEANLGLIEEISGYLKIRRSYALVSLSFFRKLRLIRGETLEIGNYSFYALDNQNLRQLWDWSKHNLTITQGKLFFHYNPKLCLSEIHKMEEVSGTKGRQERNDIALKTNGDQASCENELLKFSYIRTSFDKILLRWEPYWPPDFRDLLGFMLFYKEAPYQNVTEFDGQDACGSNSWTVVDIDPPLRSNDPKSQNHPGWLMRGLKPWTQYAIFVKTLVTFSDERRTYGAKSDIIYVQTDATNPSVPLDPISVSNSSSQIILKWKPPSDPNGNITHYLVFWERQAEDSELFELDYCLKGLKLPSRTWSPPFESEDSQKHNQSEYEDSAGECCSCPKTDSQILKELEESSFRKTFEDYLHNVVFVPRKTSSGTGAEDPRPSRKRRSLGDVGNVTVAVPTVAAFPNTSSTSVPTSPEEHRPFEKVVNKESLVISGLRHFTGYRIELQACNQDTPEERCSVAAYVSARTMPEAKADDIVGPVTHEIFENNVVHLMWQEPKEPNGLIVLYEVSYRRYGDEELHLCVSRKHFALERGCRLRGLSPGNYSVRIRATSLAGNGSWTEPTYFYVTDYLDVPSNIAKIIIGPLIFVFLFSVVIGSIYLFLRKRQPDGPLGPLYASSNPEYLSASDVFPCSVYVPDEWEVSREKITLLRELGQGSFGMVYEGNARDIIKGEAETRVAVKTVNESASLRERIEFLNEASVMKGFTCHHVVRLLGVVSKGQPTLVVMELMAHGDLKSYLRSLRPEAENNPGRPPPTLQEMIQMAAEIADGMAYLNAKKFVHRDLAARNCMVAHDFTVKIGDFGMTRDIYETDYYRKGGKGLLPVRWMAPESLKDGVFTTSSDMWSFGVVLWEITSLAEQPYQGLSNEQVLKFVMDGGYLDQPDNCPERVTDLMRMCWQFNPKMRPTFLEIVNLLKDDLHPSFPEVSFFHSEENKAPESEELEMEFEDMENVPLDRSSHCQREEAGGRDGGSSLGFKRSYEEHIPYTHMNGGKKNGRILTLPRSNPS
# assay.text: InsR kinase assay
# Assay type: biochemical
# condition.set: 10 μM compound; read-out: InsR percent of inhibition
measured.property: inhibition at 10 µM (%)

Below, each entry is followed by its recorded inhibition at 10 µM result.
> print(dat)
                    structure.smiles.string  endpoint.unit  meas.value
1  Clc1cccc(Nc2nc(C3CC3)nc3sc4c(c23)CCCC4)c1              %           3
2   Brc1cccc(Nc2nc(C3CC3)nc3sc4ccccc4c23)c1              %           5
3         Nc1cccc(Nc2ncnc3sc4c(c23)CCCC4)c1              %          -7

(a) FC(F)(F)c1cccc(Nc2nc(C3CC3)nc3sc4c(c23)CCCC4)c1
(b) COc1cccc(Nc2nc(C3CC3)nc3sc4ccccc4c23)c1
Identify the item whose inhibition at 10 µM is the smaller number: a or b Answer = label.
b
(b: -12%, a: -6%)

====

# target.of.assay: c-Raf (Homo sapiens, UniProt P04049)
# Sequence (P04049 whole entry, species assumed): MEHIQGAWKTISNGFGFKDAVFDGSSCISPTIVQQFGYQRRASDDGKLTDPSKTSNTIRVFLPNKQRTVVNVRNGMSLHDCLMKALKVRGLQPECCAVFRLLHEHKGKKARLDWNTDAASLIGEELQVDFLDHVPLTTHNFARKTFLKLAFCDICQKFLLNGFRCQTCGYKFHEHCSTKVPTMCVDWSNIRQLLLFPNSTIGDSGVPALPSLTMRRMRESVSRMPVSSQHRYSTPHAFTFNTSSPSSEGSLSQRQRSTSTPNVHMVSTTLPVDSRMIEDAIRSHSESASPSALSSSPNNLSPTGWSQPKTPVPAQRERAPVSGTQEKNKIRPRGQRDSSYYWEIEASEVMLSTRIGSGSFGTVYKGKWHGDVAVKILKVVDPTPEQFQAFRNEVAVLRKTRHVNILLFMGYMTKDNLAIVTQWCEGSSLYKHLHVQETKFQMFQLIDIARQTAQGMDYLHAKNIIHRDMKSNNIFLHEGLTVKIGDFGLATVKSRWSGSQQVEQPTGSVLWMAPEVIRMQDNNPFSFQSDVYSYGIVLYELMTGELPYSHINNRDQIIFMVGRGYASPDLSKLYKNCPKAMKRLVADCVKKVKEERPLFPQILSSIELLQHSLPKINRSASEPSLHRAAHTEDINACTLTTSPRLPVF
# assay.text: c-Raf kinase assay
# Type: biochemical
# condition.set: 10 μM compound; read-out: c-Raf percent of inhibition
measured.property: inhibition at 10 µM (%)

Below, each entry is followed by its recorded inhibition at 10 µM result.
> print(dat)
                   structure.smiles.string                       target.of.assay  meas.value
1        Fc1cccc(Nc2ncnc3sc4c(c23)CCCC4)c1  c-Raf (Homo sapiens, UniProt P04049)          16
2       Brc1cccc(Nc2ncnc3sc4c(c23)CCCC4)c1  c-Raf (Homo sapiens, UniProt P04049)          -4
3       Clc1ccc(Nc2ncnc3sc4c(c23)CCCC4)cc1  c-Raf (Homo sapiens, UniProt P04049)         -20
4  Clc1cccc(Nc2nc(C3CC3)nc3sc4ccccc4c23)c1  c-Raf (Homo sapiens, UniProt P04049)          12

(a) Fc1ccc(Nc2ncnc3sc4c(c23)CCCC4)cc1
(b) Clc1cccc(Nc2ncnc3sc4ccccc4c23)c1
(c) Fc1ccccc1Nc1ncnc2sc3c(c12)CCCC3
(d) Fc1cccc(Nc2ncnc3sc4ccccc4c23)c1
Number of compounds to sort: 4. Sort criterion: inhibition at 10 µM, ascending. // list labels; follow requested order
b, d, a, c
(b: -6%, d: -2%, a: 12%, c: 23%)

(a) COc1cccc(Nc2nc(C3CC3)nc3sc4ccccc4c23)c1
(b) Clc1cccc(Nc2nc(C3CC3)nc3sc4c(c23)CCCC4)c1
Identify the item whose inhibition at 10 µM is the smaller number: a or b Answer = label.
b

====

# target.of.assay: AKT1/PKBa (Homo sapiens, UniProt P31749)
# Sequence (P31749 whole entry): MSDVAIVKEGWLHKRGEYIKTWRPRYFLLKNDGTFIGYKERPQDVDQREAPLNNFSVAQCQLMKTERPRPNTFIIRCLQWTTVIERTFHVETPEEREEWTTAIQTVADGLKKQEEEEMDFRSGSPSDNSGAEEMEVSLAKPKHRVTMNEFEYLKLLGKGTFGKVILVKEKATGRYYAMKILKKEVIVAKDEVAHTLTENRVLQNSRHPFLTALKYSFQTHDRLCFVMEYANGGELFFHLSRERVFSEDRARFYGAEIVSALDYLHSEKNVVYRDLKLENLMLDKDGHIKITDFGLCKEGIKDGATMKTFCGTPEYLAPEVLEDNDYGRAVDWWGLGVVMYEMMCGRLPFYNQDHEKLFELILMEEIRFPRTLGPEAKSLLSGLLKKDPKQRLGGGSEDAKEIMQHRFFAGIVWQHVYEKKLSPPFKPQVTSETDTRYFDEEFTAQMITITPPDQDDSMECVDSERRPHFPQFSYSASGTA
# assay.text: AKT1/PKBa kinase assay
# Type: biochemical
# condition.set: 10 μM compound; read-out: AKT1/PKBa percent of inhibition
measured.property: inhibition at 10 µM (%)

> print(dat)
              structure.smiles.string  endpoint.unit  meas.value
1  Clc1ccc(Nc2ncnc3sc4c(c23)CCCC4)cc1              %         -11

(A) Clc1cccc(Nc2nc(C3CC3)nc3sc4c(c23)CCCC4)c1
(B) Brc1cccc(Nc2ncnc3sc4ccccc4c23)c1
(C) Fc1cccc(Nc2ncnc3sc4c(c23)CCCC4)c1
Put the items in sequence by inhibition at 10 µM, from largest down. // list labels; follow requested order
B, C, A
(B: 9%, C: -7%, A: -10%)

====

# target.of.assay: ROCK2 (Homo sapiens)
# assay.text: ROCK2 kinase assay
# Assay type: biochemical
# condition.set: 10 μM compound; read-out: ROCK2 percent of inhibition
measured.property: inhibition at 10 µM (%)

> print(dat)
                    structure.smiles.string  meas.value
1  N#Cc1cccc(Nc2nc(C3CC3)nc3sc4c(c23)CCCC4)c1          12

(A) COc1cccc(Nc2nc(C3CC3)nc3sc4c(c23)CCCC4)c1
(B) Nc1ccc(Nc2ncnc3sc4c(c23)CCCC4)cc1
Identify the item whose inhibition at 10 µM is the smaller number: A or B Answer = label.
B
(B: -11%, A: 9%)

====

# target.of.assay: CK1-alpha (Homo sapiens)
# Sequence (P48729 whole entry): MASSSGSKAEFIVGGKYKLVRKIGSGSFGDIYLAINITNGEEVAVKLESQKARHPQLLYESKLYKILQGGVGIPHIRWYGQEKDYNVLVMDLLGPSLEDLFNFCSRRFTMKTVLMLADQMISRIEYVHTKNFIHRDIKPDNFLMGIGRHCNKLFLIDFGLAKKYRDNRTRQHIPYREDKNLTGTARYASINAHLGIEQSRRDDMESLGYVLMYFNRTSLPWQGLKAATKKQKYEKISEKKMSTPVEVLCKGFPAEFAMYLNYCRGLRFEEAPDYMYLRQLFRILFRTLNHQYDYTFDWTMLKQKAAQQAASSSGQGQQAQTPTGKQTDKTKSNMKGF
# assay.text: CK1-alpha kinase assay
# Format: biochemical
# condition.set: 10 μM compound; read-out: CK1-alpha percent of inhibition
measured.property: inhibition at 10 µM (%)

> print(dat)
                   structure.smiles.string           target.of.assay    measured.property  meas.value
1  Brc1cccc(Nc2nc(C3CC3)nc3sc4ccccc4c23)c1  CK1-alpha (Homo sapiens)  inhibition at 10 µM          10
2          Fc1cccc(Nc2ncnc3sc4ccccc4c23)c1  CK1-alpha (Homo sapiens)  inhibition at 10 µM           0
3          Fc1ccccc1Nc1ncnc2sc3c(c12)CCCC3  CK1-alpha (Homo sapiens)  inhibition at 10 µM           6

(P) Clc1ccc(Nc2ncnc3sc4c(c23)CCCC4)cc1
(Q) Clc1cccc(Nc2nc(C3CC3)nc3sc4c(c23)CCCC4)c1
Identify the item whose inhibition at 10 µM is the smaller number: P or Q Answer = label.
Q

(1) Oc1cccc(Nc2nc(C3CC3)nc3sc4c(c23)CCCC4)c1
(2) Brc1cccc(Nc2ncnc3sc4ccccc4c23)c1
Which entry has a larger number for inhibition at 10 µM, 1 or 2 ? Answer = label.
2
(2: 7%, 1: 4%)

(1) O=[N+]([O-])c1cccc(Nc2nc(C3CC3)nc3sc4c(c23)CCCC4)c1
(2) N#Cc1cccc(Nc2ncnc3sc4c(c23)CCCC4)c1
(3) Nc1ccc(Nc2ncnc3sc4c(c23)CCCC4)cc1
Put the items in sequence by inhibition at 10 µM, from largest down. // list labels; follow requested order
2, 3, 1
(2: 7%, 3: 4%, 1: 0%)
